- study system: UniProtKB P11229
- Sequence (P11229 whole entry): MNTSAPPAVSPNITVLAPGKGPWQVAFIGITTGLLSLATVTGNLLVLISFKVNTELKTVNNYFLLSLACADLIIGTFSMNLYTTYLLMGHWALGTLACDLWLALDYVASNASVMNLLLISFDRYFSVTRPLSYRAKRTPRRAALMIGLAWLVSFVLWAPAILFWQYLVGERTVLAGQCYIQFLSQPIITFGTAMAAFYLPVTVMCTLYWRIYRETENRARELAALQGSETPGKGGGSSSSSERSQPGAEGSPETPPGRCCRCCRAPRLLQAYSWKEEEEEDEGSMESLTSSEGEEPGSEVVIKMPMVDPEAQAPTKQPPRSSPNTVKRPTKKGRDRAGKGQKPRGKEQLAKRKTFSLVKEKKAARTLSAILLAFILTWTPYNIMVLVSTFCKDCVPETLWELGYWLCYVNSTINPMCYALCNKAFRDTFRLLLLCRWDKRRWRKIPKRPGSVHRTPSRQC
- assay: Measurement of M1 receptor positive allosteric modulator (M1PAM) activity, calcium fluorescence (FLIPRtetra) with acetylcholine at EC20
- setup conditions: inflection point of concentration-dependent curve; CHO-K1 cells expressing hCHRM1; acetylcholine at EC20 (final 0.6-0.8 nM); read-out: IP value
The following compounds are shown together with reported EC50 values.
# unit: µM | format: bare number

INSERT INTO results (compound, study_system, result_value) VALUES
  ('Cc1cc2c(cc1Cc1ccc(-n3cccn3)cc1)C(=O)N([C@H]1CCC[C@@H]1O)C2 [Example 4]', 'UniProtKB P11229', 0.019),
  ('Cc1cc2c(cc1Cc1ccc(-c3cnn(C)c3)cc1)C(=O)N(CC1CCCO1)C2 (stereo not drawn)', 'UniProtKB P11229', 0.096),
  ('CNC(=O)c1ccc(Cc2cc3c(c(C)c2C)CN(C[C@@H]2CCCO2)C3=O)cc1F', 'UniProtKB P11229', 0.014),
  ('Cc1c(Cc2ccc(C#N)cc2F)cc2c(c1C)CN([C@H]1COCC[C@@H]1O)C2=O (racemic) [Example 112]', 'UniProtKB P11229', 0.03);

[ask] Give its EC50 value. Item: Cc1c(Cc2ccc(-c3cn(C)nn3)cc2)cc2c(c1C)CN(C[C@H]1CCCO1)C2=O
[reply] 0.024

[ask] Requested field: EC50. Item: Cc1c(Cc2ccc(-n3cccn3)cc2)cc2c(c1F)CN([C@H]1CCC[C@@H]1O)C2=O (racemic) [Example 79]
[reply] 0.072

[ask] Which EC50 reading was recorded for the compound Cc1cc2c(cc1Cc1ccc(-c3cnn(C)c3)cc1)C(=O)N([C@H]1CCC[C@@H]1O)C2 (racemic) ?
[reply] 0.026

[ask] Entry under review: Cc1c(Cc2ccc(-n3cccn3)cc2)cc2c(c1F)CN([C@H]1CCCC[C@@H]1O)C2=O (racemic) . Reported EC50?
[reply] 0.0088

[ask] # EC50 lookup, item Cc1c(Cc2ccc(-n3cccn3)cc2)cc2c(c1F)CN([C@H]1COCC[C@@H]1O)C2=O
[reply] 0.0055
